Assay target: Stb4 (UniProt P50104)
Sequence (P50104 whole entry): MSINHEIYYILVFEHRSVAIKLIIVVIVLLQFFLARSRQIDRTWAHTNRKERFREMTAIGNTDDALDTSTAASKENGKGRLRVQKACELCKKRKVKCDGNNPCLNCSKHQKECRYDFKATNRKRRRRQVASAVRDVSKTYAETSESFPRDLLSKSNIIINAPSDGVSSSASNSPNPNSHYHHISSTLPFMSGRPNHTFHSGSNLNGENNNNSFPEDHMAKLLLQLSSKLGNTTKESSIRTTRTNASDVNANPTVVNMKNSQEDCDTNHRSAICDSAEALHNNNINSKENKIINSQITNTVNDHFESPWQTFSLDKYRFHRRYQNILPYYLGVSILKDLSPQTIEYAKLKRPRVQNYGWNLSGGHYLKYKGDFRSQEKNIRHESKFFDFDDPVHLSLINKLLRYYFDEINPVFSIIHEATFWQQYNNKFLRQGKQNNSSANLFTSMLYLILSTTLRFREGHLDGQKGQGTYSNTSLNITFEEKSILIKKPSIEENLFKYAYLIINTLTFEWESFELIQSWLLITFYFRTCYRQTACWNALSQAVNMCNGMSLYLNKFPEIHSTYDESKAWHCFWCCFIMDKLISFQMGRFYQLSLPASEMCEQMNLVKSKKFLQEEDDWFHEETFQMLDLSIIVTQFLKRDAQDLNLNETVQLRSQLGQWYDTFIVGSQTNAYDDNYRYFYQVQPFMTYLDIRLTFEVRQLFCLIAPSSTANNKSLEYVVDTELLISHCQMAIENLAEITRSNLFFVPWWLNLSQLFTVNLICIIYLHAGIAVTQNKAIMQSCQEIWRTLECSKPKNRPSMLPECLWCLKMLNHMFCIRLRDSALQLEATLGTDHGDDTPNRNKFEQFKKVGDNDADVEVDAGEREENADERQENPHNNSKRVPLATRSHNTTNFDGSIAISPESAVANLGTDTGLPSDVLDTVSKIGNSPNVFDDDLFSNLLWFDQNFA
Assay procedure: PBM E-score (8-mer binding enrichment) (E-score (-0.5 to 0.5)); higher = stronger / more preferred TF binding
Condition info: protein concentration: 200 nM; construct: GST-DNA-binding domain
Whole data set: some 33,000 sequences, median “E-score (-0.5 to 0.5)” near -0.056, cut for the highest 2% near 0.38. What follows is part of a selection rich in the highest values, with near analogues and random picks from the rest.
Quantity measured: PBM E-score

seq_string=CCGGTCCA quantity_measured="PBM E-score" obs_value=0.0504
seq_string=CTCAGTGC quantity_measured="PBM E-score" obs_value=-0.109
seq_string=AATCGGCA quantity_measured="PBM E-score" obs_value=0.32
seq_string=CGTCTGAG quantity_measured="PBM E-score" obs_value=-0.171
